Target: T1, human mesothelin (human, UniProt Q13421 296-580, limits assumed)
T1 construct: also called Human MSLN
T1 sequence (Q13421 other isoform, or with tags, fused parts or gaps limits assumed): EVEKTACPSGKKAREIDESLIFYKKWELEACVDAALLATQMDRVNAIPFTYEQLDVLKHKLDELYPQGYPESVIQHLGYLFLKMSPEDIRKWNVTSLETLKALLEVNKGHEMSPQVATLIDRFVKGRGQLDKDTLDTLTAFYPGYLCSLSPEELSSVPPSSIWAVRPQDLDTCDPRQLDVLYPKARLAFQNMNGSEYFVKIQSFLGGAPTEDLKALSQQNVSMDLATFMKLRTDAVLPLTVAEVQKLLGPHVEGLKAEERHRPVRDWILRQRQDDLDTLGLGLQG
Assay: SPR
Given measured kon, output label 1 if it is greater than or equal to 20000 M⁻¹ s⁻¹ and label 0 if not.

HuAb17 (antibody, V domains shown, fully human antibody) VH: EVQLVQSGAEVKEPGASVKVSCKASGDTFNRYYVHWARQAPGQGLEWMGIINPSGVSTTYAQKFQGRVTMTRDTPTNTVYMELGSLRPEDTAVYFCAESRGSGYNYFAMDVWGQGTLVTVSS VL: SYELTQPPSVSVSPGQTADITCSGDKLGDKYASWYQQKPGQSPVLVIYQDNRRPSGIPERFSGSNSGNTATLTISGTQAMDEADYYCQAWDSDTYVFGPGTKVTVL :: label 0
HuAM16 (antibody, V domains shown, fully human antibody) VH: EVQLVQSGAEVKKPGASVKVSCKASGDTFNRYYVQWVRQAPGQGLEWMGIINPSGVSTTYAQKFQGRVTMTRDTSTSTVYMELSSLRSEDTAVYYCAETRGSGFNYFGMDVWGQGTLVTVSS VL: SYELTQPPSVSVSPGQTASITCSGDKLGDKYASWYQQKPGQSPVLVIYQDNRRPSGIPERFSGSNSGNTATLTISGTQAMDEADYYCQAWDSDTYVFGTGTKVTVL :: label 1
HuAM17 (antibody, V domains shown, fully human antibody) VH: EVQLVQSGAEVKKPGASVKVSCKASGDTFNRYYVQWVRQAPGQGLEWMGIINPSGVSTTYAQKFQGRVTMTRDTSTSTVYMELSSLRSEDTAVYYCAESRVPGYNIFAMDVWGQGTLVTVSS VL: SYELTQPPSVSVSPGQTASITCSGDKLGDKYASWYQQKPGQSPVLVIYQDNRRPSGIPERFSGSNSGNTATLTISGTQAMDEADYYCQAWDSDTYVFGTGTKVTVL :: label 1
HuAM7 (antibody, V domains shown, fully human antibody) VH: EVQLVQSGAEVKKPGASVKVSCKASGDTFNRYYVHWVRQAPGQGLEWMGIINPSGVSTTYAQKFQGRVTMTRDTSTSTVYMELSSLRSEDTAVYYCAEVRGSGYNYFGMDVWGQGTLVTVSS VL: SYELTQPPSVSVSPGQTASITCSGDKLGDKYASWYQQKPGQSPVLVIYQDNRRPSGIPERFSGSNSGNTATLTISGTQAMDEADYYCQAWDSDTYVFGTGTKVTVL :: label 1
HuAM18 (antibody, V domains shown, fully human antibody) VH: EVQLVQSGAEVKKPGASVKVSCKASGDTFNRYYVHWVRQAPGQGLEWMGIINPSGVSTTYAQKFQGRVTMTRDTSTSTVYMELSSLRSEDTAVYYCAETRGSGYNYFGMDVWGQGTLVTVSS VL: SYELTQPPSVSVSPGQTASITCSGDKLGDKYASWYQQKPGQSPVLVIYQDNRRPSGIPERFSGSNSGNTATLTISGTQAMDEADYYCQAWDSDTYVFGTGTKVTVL :: label 0

Is the recorded value of kon equal to or greater than 20000 M⁻¹ s⁻¹ for this binder? HuAM5 (antibody, V domains shown, fully human antibody) VH: EVQLVQSGAEVKKPGASVKVSCKASGDTFNRYYVHWVRQAPGQGLEWMGIINPSGVSTTYAQKFQGRVTMTRDTSTSTVYMELSSLRSEDTAVYYCAEVRGSGYNYFAMDVWGQGTLVTVSS VL: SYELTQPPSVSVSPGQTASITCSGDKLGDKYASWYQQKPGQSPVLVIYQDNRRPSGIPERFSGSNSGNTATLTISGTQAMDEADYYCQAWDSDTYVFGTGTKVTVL label 1

Is the recorded value of kon equal to or greater than 20000 M⁻¹ s⁻¹ for this binder? HuAM6 (antibody, V domains shown, fully human antibody) VH: EVQLVQSGAEVKKPGASVKVSCKASGDTFNRYYVHWVRQAPGQGLEWMGIINPSGVSTTYAQKFQGRVTMTRDTSTSTVYMELSSLRSEDTAVYYCAESRVPGYNNFAMDVWGQGTLVTVSS VL: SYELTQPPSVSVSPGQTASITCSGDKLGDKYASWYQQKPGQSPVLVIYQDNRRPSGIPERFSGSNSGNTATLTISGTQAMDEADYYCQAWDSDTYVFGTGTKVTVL label 1
